Attribution: PubChem BioAssay

Overview of reported nuclei count across a group of molecules:
# assay-method-text: endothelial E-selectin expression blockers – imaging, HUVEC, immunofluorescence, MLSMR starter and 10KST1 sets, primary screen (AID 487);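 note: 100% = median nuclei count of all wells on the same plate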
# test-conditions: HUVEC TNFalpha-induced E-selectin immunofluorescence imaging, at 2 µM; measured here: cell number, toxicity
endpoint-name: nuclei count (%)

{"molecule": "CCOCCn1cnc2sc(C(=O)Nc3nc(C)c(C(=O)OCC)s3)c(C)c2c1=O", "unit-of-measurement": "%", "test-result": 105}
{"molecule": "O=C(NC1CCCCC1)c1nc2c(nnn2Cc2ccccc2Cl)c(=O)[nH]1", "unit-of-measurement": "%", "test-result": 105}
{"molecule": "COCCNC(=O)C(c1ccc(C)o1)N(Cc1cccs1)C(=O)c1snc(C(N)=O)c1N (stereo not drawn)", "unit-of-measurement": "%", "test-result": 117}
{"molecule": "COc1ccc(-c2noc(COc3ccc(Cl)c(C)c3)n2)cc1", "unit-of-measurement": "%", "test-result": 94.1}
{"molecule": "CC1=C(C)C(=O)NC(Nc2nc(C)c3cc(C)cc(C)c3n2)N1 (stereo not drawn)", "unit-of-measurement": "%", "test-result": 115}
{"molecule": "O=C(Nc1ccc2oc(Cc3ccc(Cl)cc3)nc2c1)c1cccnc1", "unit-of-measurement": "%", "test-result": 114}
{"molecule": "Cn1c(=O)[nH]c(=O)c2c1nc(N1CCCCCC1)n2CCCSc1nc2ccccc2o1", "unit-of-measurement": "%", "test-result": 98.7}
{"molecule": "Cc1cc(NC(=O)c2ccc(Cl)cc2)no1", "unit-of-measurement": "%", "test-result": 83.6}
{"molecule": "Cc1oc2c(c1C(=O)NCc1ccccc1)CCCC2", "unit-of-measurement": "%", "test-result": 130}
{"molecule": "Nc1cc(C(=O)O)ccc1Nc1ccc(F)c(F)c1", "unit-of-measurement": "%", "test-result": 96.9}
{"molecule": "CC1CCCN(c2ccc(C(=O)NCc3cccs3)cn2)C1 (stereo not drawn)", "unit-of-measurement": "%", "test-result": 139}
{"molecule": "CCOC(=O)c1cccc(NC(=O)C2CCN(S(=O)(=O)c3cccs3)CC2)c1", "unit-of-measurement": "%", "test-result": 128}
{"molecule": "CC(=O)N1CCc2cc(S(=O)(=O)NCCC(=O)Nc3cc(C)cc(C)c3)ccc21", "unit-of-measurement": "%", "test-result": 98}
{"molecule": "CCCCOc1ccc(-c2nnn(C(C)(C)C(=O)OC)n2)cc1", "unit-of-measurement": "%", "test-result": 102}
{"molecule": "COc1ccc(N2CCN(C(=O)CCNS(=O)(=O)c3ccc(Br)s3)CC2)cc1", "unit-of-measurement": "%", "test-result": 108}
{"molecule": "CCS(=O)(=O)N1CCC(C(=O)N2CCOCC2)CC1", "unit-of-measurement": "%", "test-result": 94.4}
{"molecule": "Cc1nc2nc(Cc3ccccc3)[nH]n2c(=O)c1Cc1ccccc1", "unit-of-measurement": "%", "test-result": 96.1}
{"molecule": "CC(=O)N1CCc2cc(S(=O)(=O)CCC(=O)Nc3cccc(F)c3)ccc21", "unit-of-measurement": "%", "test-result": 112}
{"molecule": "CC(C)(C#N)Nn1cnnc1", "unit-of-measurement": "%", "test-result": 110}
{"molecule": "CC(CN1CCCCC1)OC(=O)c1ccc2c(c1)OCO2 (stereo not drawn)", "unit-of-measurement": "%", "test-result": 103}
{"molecule": "CC(CCc1ccccc1)NC(=O)C1CCN(S(=O)(=O)c2cnc[nH]2)CC1 (stereo not drawn)", "unit-of-measurement": "%", "test-result": 110}
{"molecule": "COCc1cc(C)nc(SCC(=O)Nc2cccc(C)c2C)c1C#N", "unit-of-measurement": "%", "test-result": 107}
{"molecule": "COCCNC(=O)CN1CCN(Cc2cccc(Cl)c2)C1=O", "unit-of-measurement": "%", "test-result": 125}

###

Below, each entry is listed alongside its reported inhibition of aggregation.
# assay-method-text: reduction of polyQ htt aggregates in cells – imaging, exon1htt(103Q)mCFP cells, high-content imaging, primary screen (AID 483);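 note: compound exposure lasted 3 days before fixation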
# test-conditions: exon1htt(103Q)mCFP cell line, aggregate imaging, at 2 µM; stronger effect = higher value

{"compound": "O=C(COC(=O)CCOc1ccccc1)Nc1ccc(Cl)cn1", "unit-of-measurement": "%", "inhibition of aggregation": -12.2}
{"compound": "COc1cc2c(cc1OC)CN(C(=O)CSc1nnc3scc(-c4ccccc4)n13)CC2", "unit-of-measurement": "%", "inhibition of aggregation": 12.8}
{"compound": "CCOC(=O)Nc1ccc2c(c1)N(C(=O)CCN1CCOCC1)c1ccccc1S2", "unit-of-measurement": "%", "inhibition of aggregation": 32.1}
{"compound": "COc1ccc(OC)c(S(=O)(=O)NCCO)c1", "unit-of-measurement": "%", "inhibition of aggregation": 11}
{"compound": "CCCC(OC(=O)CN1C(=O)COc2ccccc21)C(=O)NC1CCCC1 (stereo unspecified)", "unit-of-measurement": "%", "inhibition of aggregation": 1.5}
{"compound": "CN1C(=O)c2oc3ccccc3c(=O)c2C1c1ccccn1 (stereo unspecified)", "unit-of-measurement": "%", "inhibition of aggregation": -16.4}
{"compound": "O=C(CCCn1c(=O)[nH]c2ccsc2c1=O)N1CCN(c2ccccn2)CC1", "unit-of-measurement": "%", "inhibition of aggregation": -1}
{"compound": "CC(=O)c1c(NCCc2ccccc2)cc(C)oc1=O", "unit-of-measurement": "%", "inhibition of aggregation": 8.3}
{"compound": "CCOC(=O)c1cccc(NC(=O)C2CCN(S(=O)(=O)c3cccs3)CC2)c1", "unit-of-measurement": "%", "inhibition of aggregation": 3.6}
{"compound": "COCCCNC(=O)CC1Oc2ccccc2NC1=O (stereo unspecified)", "unit-of-measurement": "%", "inhibition of aggregation": 13.4}
{"compound": "OC(CN1CCCCC1)Cn1c(C(F)(F)F)nc2ccccc21 (stereo unspecified)", "unit-of-measurement": "%", "inhibition of aggregation": 25.1}

###

# assay-method-text: reduction of polyQ htt aggregates in cells – imaging, exon1htt(103Q)mCFP cells, high-content imaging, primary screen (AID 483);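 note: compound exposure lasted 3 days before fixation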
# test-conditions: exon1htt(103Q)mCFP cell line, aggregate imaging, at 2 µM; stronger effect = higher value
endpoint-name: inhibition of aggregation (%)

{"molecule": "CCC1C(=O)n2nc(-c3ccccc3)cc2N=C1C (centres undefined)", "test-result": -7.3}
{"molecule": "Cc1oc2c(c1C(=O)NCc1ccccc1)CCCC2", "test-result": -13.6}
{"molecule": "COc1ccc(NC(C)=O)cc1NC(=O)CN1CCN(c2ccccn2)CC1", "test-result": -1.2}
{"molecule": "CCOC(=O)CSc1nc2ccccc2n1CC(=O)N1CCN(c2ccccc2)CC1", "test-result": 7.6}
{"molecule": "COCCNC(=S)c1ccc(OC)cc1", "test-result": 1.2}
{"molecule": "CCOC(=O)c1cccc(NC(=O)CSc2nnc(C3CCCCC3)n2C)c1", "test-result": 7.3}
{"molecule": "Cc1ccc2c(c1)-c1c(cnn1CC(=O)NC(C)CCc1ccco1)CO2 (centres undefined)", "test-result": -8}
{"molecule": "COC(=O)CN1C(=O)C(O)(CC(=O)c2ccc(C)cc2)c2cc(Br)ccc21 (centres undefined)", "test-result": -6}
{"molecule": "Cc1ccc(-c2nnn(CC(=O)N(CC(=O)NC3CCCCC3)c3cnc4ccccc4c3)n2)o1", "test-result": 27.2}
{"molecule": "CC1(C)Cc2c(sc3c2c(=N)n(Cc2ccco2)c(=O)n3Cc2ccccc2)CO1", "test-result": 12}
{"molecule": "Cc1onc(-c2ccccc2)c1C(=O)N1CCCSC1=Nc1ccccc1", "test-result": 12.6}
{"molecule": "O=C(Nc1nnc(SCC(=O)N2CCCCC2)s1)C1CCCCC1", "test-result": 1.9}
{"molecule": "CC(NC(=O)NC12CC3CC(CC(C3)C1)C2)C1CCCO1 (centres undefined)", "test-result": 0.8}
{"molecule": "FC(F)Sc1nnc(-c2cccs2)n1-c1ccccc1", "test-result": -10.1}
{"molecule": "Cc1ccc(-c2nc3cc(NC(=O)C(C)C)ccc3o2)cc1", "test-result": 14.3}
{"molecule": "COc1cc(-c2nc(S(=O)(=O)c3ccccc3)c(N3CCOCC3)o2)cc(OC)c1OC", "test-result": -5.3}
{"molecule": "CN(C)C(=O)CN(C)S(=O)(=O)c1ccc(Cl)cc1", "test-result": 10.6}
{"molecule": "COc1ccc(C(=O)NCc2nc3ccccc3[nH]2)cc1OC", "test-result": 6.6}
{"molecule": "COC(=O)COc1ccc(C(=O)OC)cc1", "test-result": 9.9}
{"molecule": "O=C(O)C1CCCN1C(=O)Nc1ccc(F)cc1 (centres undefined)", "test-result": 13.6}
{"molecule": "O=C(Nc1ccccc1C(=O)N1CCCCCC1)c1cccc(S(=O)(=O)N2CCOCC2)c1", "test-result": -11.4}
{"molecule": "CC(=O)c1c(O)cc(C)n(Nc2nc(C)cc(C)n2)c1=O", "test-result": -23.4}
{"molecule": "Cc1cc(S(=O)(=O)N2CCN(c3ccccc3C)CC2)ccc1F", "test-result": -13.5}
{"molecule": "CCOc1ccc(Cl)cc1S(=O)(=O)N1CCCC1", "test-result": 0.2}
